Tested on: α1-adrenoceptor (aorta)
Assay: α-adrenoceptor antagonism, isolated rat aorta, pA2 vs norepinephrine
Set-up: species or system Wistar rat
Conditions: Schild plot, mean ± SEM of six to eight experiments
Measured α1 pA2 value, Aorta of individual entries
Output: the number by itself.

Here is how some molecules turned out for α1 pA2 value, Aorta.
molecule="CCOC(=O)C(CCc1ccc(OCC(O)CNCCOc2ccccc2OC)cc1)NC(C)C(=O)N1CCCC1C(=O)O (mixture of isomers)" assay_endpoint="α1 pA2 value, Aorta" result=6.93
molecule="CC(CCc1ccccc1)NCC(O)c1ccc(O)c(C(N)=O)c1 (stereo not drawn) [labetalol, reference compound]" assay_endpoint="α1 pA2 value, Aorta" result=6.87
molecule="COc1ccccc1OCCNCC(O)COc1ccc(CO)cc1OC (stereo not drawn)" assay_endpoint="α1 pA2 value, Aorta" result=7.89

Now consider a different molecule.
Asked: Read the entry COc1cc(CO)ccc1OCC(O)CNC(C)(C)C (stereo not drawn) and write its reported α1 pA2 value, Aorta.
Given back: 7.23

Cited source for all entries: patent US20030040485A1
